Molecular target: T1, cynomolgus SIRPα expressed on cells (cynomolgus monkey, UniProt A0A2K5VYQ9 31-507)
T1 construct: whole, on cells; also called ExpiCHO-S (cySIRPα)
T1 sequence: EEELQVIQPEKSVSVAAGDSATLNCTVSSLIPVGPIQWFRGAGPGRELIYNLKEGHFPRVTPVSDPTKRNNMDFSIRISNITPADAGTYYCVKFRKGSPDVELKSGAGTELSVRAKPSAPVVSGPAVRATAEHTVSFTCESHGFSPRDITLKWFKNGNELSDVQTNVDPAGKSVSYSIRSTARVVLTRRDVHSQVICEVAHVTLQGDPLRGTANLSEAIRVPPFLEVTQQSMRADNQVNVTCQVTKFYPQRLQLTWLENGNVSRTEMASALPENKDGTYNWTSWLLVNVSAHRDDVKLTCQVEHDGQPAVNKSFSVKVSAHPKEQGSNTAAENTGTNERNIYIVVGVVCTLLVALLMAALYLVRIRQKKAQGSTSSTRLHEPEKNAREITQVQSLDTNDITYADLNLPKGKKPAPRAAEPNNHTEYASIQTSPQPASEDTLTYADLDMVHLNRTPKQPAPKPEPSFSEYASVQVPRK
Assay: flow cytometry, ExpiCHO-S cells
Source text: […]
OBSERVED PROPERTY: EC50 (µg/mL)
State the answer as a number, implicitly in µg/mL.

Solved entries:
Entry anti-SIRPα antibody 4 (antibody, human IgG1, kappa, L234A L235A, V domains shown, Chimeric: rabbit variable regions on human IgG1 LALA / kappa; also called chimeric antibody 4) VH: QSVEESGGRLGTPGTPLTLTCTVSGFSLSSYVMGWFRQAPGKGLEYIGIISSSGSPYYASWVNGRFTISKTSTTMDLKMNSPTTEDTATYFCARVGPLGVDYFNIWGPGTLVTVSL VL: DIVMTQTPSSVEAAVGGTVTIKCQAGQSINSYLAWYQQKPGQRPKLLIYYASTLESGVPSRFKGSGSGTDYTLTISDLESADAATYYCQSWHYISRSYAFGGGTEVVVKR , EC50 reported as 0.18

Entry anti-SIRPα antibody 10 humanized (antibody, human IgG1, kappa, L234A L235A, V domains shown, Humanized, human IgG1 LALA / kappa) VH: KVEESGGGLVQPGGSLRLSCAASGFSLSSYVMGWVRQAPGKGLEWVSIISSSGSPYYASWVNGRFTISKDNSEGMVYLQMNSLRAEDTAVYYCARVGPLGVDYFNIWGQGTTVTVSS VL: DIVMTQSPDSLAVSLGERATINCQAGQSINSYLAWYQQKPGQPPKLLIYYASTLESGVPDRFSGSGSGTDFTLTISSLQAEDVAVYYCQSWHYISRSYAFGGGTKLEIKR , EC50 reported as 0.27

Entry anti-SIRPα antibody 12 humanized (antibody, human IgG1, kappa, L234A L235A, V domains shown, Humanized, human IgG1 LALA / kappa) VH: VQLVESGGRLVQPGTPLTLSCTVSGFSLSSYVMGWFRQAPGKGLEYIGIISSSGSPYYASWVNGRFTISKTSTTMDLKMNSLRSEDTATYFCARVGPLGVDYFNIWGPGTLVTVSS VL: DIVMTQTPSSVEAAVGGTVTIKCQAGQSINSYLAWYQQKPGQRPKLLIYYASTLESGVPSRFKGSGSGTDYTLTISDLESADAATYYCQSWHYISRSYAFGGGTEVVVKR , EC50 reported as 0.17

Entry anti-SIRPα antibody 5 (antibody, human IgG1, kappa, L234A L235A, V domains shown, Rabbit variable regions on human IgG1 LALA / kappa) VH: QSVEESGGRLVTPGTPLTLTCTVSGFSLSSYVMGWFRQAAGKGLEYIGYINADGSPYYATWVNGRFTISKTPTTMDLKINSPTTEDTATYFCARVGPLGVDYFNIWGPGTLVTVSL VL: DIVMTQTPASVEAAVGGTVTIKCQASQSINRYLTWYQQKPGQRPKLLIYYASTLESGVPSRFEGSGSGTDYTLTISDLESADAATYYCQSYYYISRTYAFGGGTEVVVKR , EC50 reported as 0.26

Next:
Entry anti-SIRPα antibody 14 humanized (antibody, human IgG1, V domains shown, Humanized, human IgG1 LALA / kappa) VH: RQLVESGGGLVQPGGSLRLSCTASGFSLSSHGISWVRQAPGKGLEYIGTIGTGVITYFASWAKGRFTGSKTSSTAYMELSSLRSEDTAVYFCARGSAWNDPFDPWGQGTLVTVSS VL: DIEMTQSPSSVSASVGDRVTLTCQASQSVYGNNDLAWYQQKPGQAPKLLIYLASTLATGVPSRFSGSGSGTDFTLTISSLQPEDFATYYCLGGGDDEADNVFGGGTKVEIKR , EC50 reported as 0.38
